# key: entry, value: ΔTm (° C.)
# assayed-target: T-p53C-Y220C (Homo sapiens, UniProt P04637, M133L/N239Y/N268D/V203A/Y220C)
# Construct: For all other experiments, the DNA coding for residues 94-312 of T-p53C was inserted into a modified pET24a(+) vector; 6xHis tag + B. stearothermophilus dihydrolipoyl acetyltransferase lipoyl domain (aa 1-85) + TEV site (N, cleaved yes); made in house; host or cells: Escherichia coli BL21 (DE3) or C41 (DE3)
# test-method-notes: Thermal denaturation using fluorescence (Sypro Orange)
# Format: binding
# assay-conditions: further compounds; 10 μM protein
reported-property: ΔTm (° C.)

• CCn1cc(C(=O)NCc2cccc(NC(=O)c3ccco3)c2)c2ccccc21 = 0.16 °C
• CCn1cc(C(=O)O)c2ccccc21 = 0.16 °C
• CCn1c2ccccc2c2cc(CN3CCN(S(=O)(=O)c4ccccc4)CC3)ccc21 = 0.17 °C
• CCCn1cc(CCN)c2cc(OCC)ccc21 = 0.26 °C
• [2H]NNS(=O)(=O)c1ccc(C(=O)OC)cc1 = 0.43 °C
• [2H]C(=O)OCC(=O)Nc1cc(C)on1 = 0.19 °C
• CCn1cc(C(=O)OCc2nc(N)nc(Nc3ccccc3)n2)c2ccccc21 = 0.3 °C
• CCn1c2ccccc2c2cc(CN3CCN(Cc4cc(OC)ccc4O)CC3)ccc21 = 0.17 °C
• CCn1cc(C(=O)Nc2c(C)nn(C)c2C)c2ccccc21 = 0.28 °C
• CCOC(=O)c1c(C)n(CC)c2cc(Br)c(OC)cc12 = 0.21 °C
